This collection of values is drawn from PubChem BioAssay (NCI).

- Tested on: IGROV1 ovarian
- ASSAY_TEXT: NCI tumour cell line growth inhibition, 48 h
READOUT_TYPE: TGI

Inquiry: Tell me the measured TGI of "CCC(=O)N1C(=O)C(CC)(CC)C(=O)N1C(=O)CC" , please.
Reply text: > 100 µM

Inquiry: Another compound: "O=C(Nc1ccc(Sc2ccc(N=Nc3c(O)c(S(=O)(=O)O)cc4cc(S(=O)(=O)O)ccc34)cc2)cc1)c1ccc(N=Nc2c(O)c(S(=O)(=O)O)cc3cc(S(=O)(=O)O)ccc23)cc1"
Reply text: > 100 µM

Inquiry: Another compound: "C=CCOCn1ccc(N)nc1=O"
Reply text: > 100 µM
